target: Glucagon-like peptide 1 receptor (Rattus norvegicus, UniProt P32301)
Sequence (P32301 whole entry): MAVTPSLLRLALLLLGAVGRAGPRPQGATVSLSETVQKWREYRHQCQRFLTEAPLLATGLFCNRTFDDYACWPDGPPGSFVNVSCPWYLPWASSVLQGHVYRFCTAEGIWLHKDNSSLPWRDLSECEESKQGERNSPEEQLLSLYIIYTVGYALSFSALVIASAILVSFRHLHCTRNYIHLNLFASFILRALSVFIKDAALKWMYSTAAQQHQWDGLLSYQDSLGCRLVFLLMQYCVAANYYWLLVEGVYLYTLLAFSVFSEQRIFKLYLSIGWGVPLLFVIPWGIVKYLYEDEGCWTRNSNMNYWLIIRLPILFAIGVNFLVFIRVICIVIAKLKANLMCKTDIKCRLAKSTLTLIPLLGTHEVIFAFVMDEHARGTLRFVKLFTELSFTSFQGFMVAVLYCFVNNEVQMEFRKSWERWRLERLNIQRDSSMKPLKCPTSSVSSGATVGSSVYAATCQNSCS
protocol_details: Inhibition of [125I]GLP1 (7-36) amide binding to rat GLP1R expressed in HEK293 cells
property_label: IC50 (µM)
Report the figure in µM without appending any unit label.

For record COc1cc([C@H]2[C@](NC(=O)c3ccc(NC(=O)OC(C)(C)C)cc3)(C(=O)O)[C@@H](c3ccc(OC(=O)C45CC6CC(CC(C6)C4)C5)c(OC)c3)[C@]2(NC(=O)c2ccc(NC(=O)OC(C)(C)C)cc2)C(=O)O)ccc1OC(=O)C12CC3CC(CC(C3)C1)C2 the listed IC50 is 3.6

For record COc1cc([C@H]2[C@](NC(=O)c3ccc(NC(=O)C4CCC4)cc3)(C(=O)O)[C@@H](c3ccc(OC(=O)c4cccs4)c(OC)c3)[C@]2(NC(=O)c2ccc(NC(=O)C3CCC3)cc2)C(=O)O)ccc1OC(=O)c1cccs1 the listed IC50 is 1.2

For record COc1cc([C@H]2[C@](NC(=O)c3ccc(NC(=O)C(C)N)cc3)(C(=O)O)[C@@H](c3ccc(OC(=O)c4cccs4)c(OC)c3)[C@]2(NC(=O)c2ccc(NC(=O)C(C)N)cc2)C(=O)O)ccc1OC(=O)c1cccs1 (some centres undefined) the listed IC50 is 16.2

----------
target: Glucagon-like peptide 1 receptor (Rattus norvegicus)
protocol_details: Inhibition of [125I]GLP1 (7-36) amide binding to rat GLP1R expressed in HEK293 cells relative to untreated control
Format: cell-based
Set-up: concentration or dose not given beside the values
condition: concentration not given here
Threshold rule: inhibition greater than or equal to 60% is Y; below that, N.

Exam item: Hello, I need to know if COc1cc([C@H]2[C@](NC(=O)c3ccc(NC(=O)OC(C)(C)C)cc3)(C(=O)O)[C@@H](c3ccc(OC(=O)c4cccs4)c(OC)c3)[C@@]2(NC(=O)c2ccc(NC(=O)OC(C)(C)C)cc2)C(=O)O)ccc1OC(=O)c1cccs1 has measured inhibition not below 60%. Thanks!
Marked response: Y

Exam item: Hello, I need to know if CNC(=S)Nc1ccc(C(=O)N[C@]2(C(=O)O)[C@H](c3ccc(OC(=O)c4cccs4)c(OC)c3)[C@@](NC(=O)c3ccc(NC(=S)NC)cc3)(C(=O)O)[C@@H]2c2ccc(OC(=O)c3cccs3)c(OC)c2)cc1 has measured inhibition not below 60%. Thanks!
Marked response: Y

Exam item: Hello, I need to know if COc1cc([C@H]2[C@](NC(=O)c3ccc(NC(=O)C4CCC4)cc3)(C(=O)O)[C@@H](c3ccc(OC(=O)c4cccs4)c(OC)c3)[C@]2(NC(=O)c2ccc(NC(=O)C3CCC3)cc2)C(=O)O)ccc1OC(=O)c1cccs1 has measured inhibition not below 60%. Thanks!
Marked response: N

Exam item: Hello, I need to know if CC(C)(C)OC(=O)Nc1ccc(C(=O)N[C@]2(C(=O)O)[C@H](c3ccc(OCc4ccccc4)cc3)[C@@](NC(=O)c3ccc(NC(=O)OC(C)(C)C)cc3)(C(=O)O)[C@@H]2c2ccc(OCc3ccccc3)cc2)cc1 has measured inhibition not below 60%. Thanks!
Marked response: N

Exam item: Hello, I need to know if COc1cc([C@H]2[C@](NC(=O)c3ccc(NC(=O)COCc4ccccc4)cc3)(C(=O)O)[C@@H](c3ccc(OC(=O)c4cccs4)c(OC)c3)[C@]2(NC(=O)c2ccc(NC(=O)COCc3ccccc3)cc2)C(=O)O)ccc1OC(=O)c1cccs1 has measured inhibition not below 60%. Thanks!
Marked response: N

Reference source for all entries: ChEMBL document CHEMBL2157924
